Catalogue of log10 TGI readings, one per entry.
- Tested on: OVCAR-8 ovarian
- protocol.notes: NCI tumour cell line growth inhibition, 48 h
Parameter value (number): base-10 log of TGI in µM.

Recorded log10 TGI, per entry:
Cc1ccc(/C=C/C(=O)c2c([O-])on[n+]2-c2ccccc2)cc1
0.61
Cc1nc2c(o1)C(=O)c1ccccc1/C2=N/c1ccccn1
1.49
CC(=O)O[C@@H]1CO[C@H]2O[C@H]3[C@@H](C(C=O)=C[C@H](O)[C@@H]4C5=C(C(C)C)CC[C@]5(C)CC[C@@]34C)[C@@]2(O)C1=O
-0.28
O=C1OC(c2ccc(O)c(Cl)c2)(c2ccc(O)c(Cl)c2)c2ccc(Br)c3cccc1c23 (tested in a mixture with another compound)
1.72
N#Cc1ccccc1C#C/C=C\C#Cc1ccc(OCCCNC(=O)c2cc3ccccc3[nH]2)cc1
1.57

Shifting focus to the molecule that follows.
Ask: Param item = "ClCCN(CCCl)c1ccc(-n2cnc3c(Cl)ncnc32)cc1" ; retrieve measured log10 TGI.
Result: 0.73

----------
- Test system: MDA-MB-435
- protocol.notes: NCI tumour cell line growth inhibition, 48 h
measurement.label: TGI (µM)
Lab book: enter the figure in µM, no units written.

O=C1/C(=C/c2ccccc2Cl)N=C(c2ccccc2)N1Cc1ccco1
49.9

Ask: Look up TGI for this molecule: "COc1ccc(Cc2nc3cc(C(F)(F)F)ccc3n2CCCN(C)C)cc1"
Result: 29.7

Ask: Let us now turn to "CN1C(=O)CNC(=O)[C@H](NC(=O)c2nc3ccccc3cc2O)CSSC[C@H]1C(=O)NCCc1nc2ccccc2cc1O"
Result: 35.8

----------
Item-by-item account of TGI
- System: NCI-H460 lung
- protocol.notes: NCI tumour cell line growth inhibition, 48 h

Ask: Item: Cc1c(-c2cc3n(n2)C(c2cccs2)C(C#N)=C(c2ccccc2)N3)c(=O)n(-c2ccccc2)n1C (stereo unspecified) Test system: NCI-H460 lung Read-out: TGI Value: ?
Result: > 100 µM

Ask: How about CC(=O)OC1CCn2nnc(COC(=O)NC(C)C)c21 (stereo unspecified) ?
Result: > 100 µM

----------
- Test system: M19-MEL melanoma
- protocol.notes: NCI tumour cell line growth inhibition, 48 h
measurement.label: TGI

Below, 5 compounds whose answers are already recorded.
COc1cc2c(c(OC)c1OC)-c1[nH]ncc1CC2
> 100 µM
O=Cc1ccc(-c2ccc(-c3ccc(C=O)s3)o2)s1
> 100 µM
O=P(O)(O)C(CSc1ccccc1)P(=O)(O)O
> 100 µM
O=C1CCCC/C1=C/C=C/c1ccccc1
> 100 µM
CC1(O)CC2C(CC1SCCO)C2(C)C (stereo not drawn)
> 100 µM

Ask: Any idea what TGI was measured for COc1ccc2c3c1C(=O)CCC3CO2 (stereo not drawn) ?
Result: > 100 µM

Ask: Proceed to "CN(C)CCn1c2ccccc2c2nc3cc4ccccc4cc3nc21"
Result: 21 µM

Ask: Now consider "Cc1ccc(NC(=O)/C(CC(=O)c2c[n+](=O)c3ccccc3n2O)=N\NC(=O)C[n+]2ccccc2)cc1" and answer again.
Result: > 100 µM

Ask: Request: "N=C(N)SCCc1cn2ccccc2n1"
Result: > 100 µM

Ask: Quick one: "CCC[CH2][Sn]([CH2]CCC)([O]C(=O)c1cccc(F)c1)[O]C(=O)c1cccc(F)c1"
Result: 1.93 µM
